# assay-details: Pharmacokinetics of Compound I in monkey after intravenous and oral administration (plasma LC/MS/MS, noncompartmental analysis)
# Assay type: in vivo, male rhesus monkeys
# experimental-context: male, rhesus, rhesus monkey, plasma, oral, 5 mg/kg, mean ± SD
reported-endpoint: AUC(0-inf) (µg·h/mL)
Kindly answer with a numeric value in µg·h/mL, unit omitted.

Query (compound): O=C(NCc1cn(-c2ccc(-n3ccccc3=O)cc2)cn1)c1ccc(Cl)s1 ; field requested: AUC(0-inf)
42.1

----------
# assay-details: Pharmacokinetics of Compound I in rat after intravenous and oral administration (plasma and urine LC/MS/MS, noncompartmental analysis)
# Assay type: in vivo, male Sprague-Dawley rats
# experimental-context: male, Sprague-Dawley, plasma, oral, 10 mg/kg, mean ± SD
reported-endpoint: AUC(0-inf) (ng·h/mL)
Kindly answer with a numeric value in ng·h/mL, unit omitted.

Query (compound): O=C(NCc1cn(-c2ccc(-n3ccccc3=O)cc2)cn1)c1ccc(Cl)s1 [Compound I] ; field requested: AUC(0-inf)
68600
